target-under-test: cyclooxygenase (Rattus norvegicus)
assay-explanation: Cyclooxygenase inhibitory activity (HHT formation from arachidonic acid in rat platelet-rich plasma)
Counter-ions that a name gives are not always drawn.
Measured IC50 values are reported for all entries that follow.
Number only, in µM; omit the unit.

Worked examples follow.
O=C(NCCCCOc1ccncc1)c1ccccc1CO [Example 148] = 3.1
CCCCCCCCCC(=O)NCCCSc1ccncc1 [Example 1] = 1.6
O=C(NCCCSc1ccncc1)c1cccc2ccccc12 [Example 27, hydrochloride] = 5.4

Kindly consider the entry below.
The compound O=C1c2ccccc2CN1CCCCSc1ccncc1 [Example 109] showed IC50 equal to 6.2

* * *

System: ART (antigen-responding T-cell)
assay-explanation: In vitro ART (antigen-responding T-cell) proliferation test
Format: cell-based, Lewis rat
applied-conditions: Rattus norvegicus, T-cell, 10 μM; read-out: % Inhibition of ART growth
Where a name gives a salt, the structure may show the parent alone.
Lab note: compare inhibition at 10 µM against 70%. Equal or greater, write fulfilled. Smaller, write not fulfilled.

Some entries whose results are on file:
O=C(NCCCSc1ccncc1)C(F)(F)F [Example 25, hydrochloride] = not fulfilled
O=C(N(CCSc1ccncc1)Cc1ccccc1)C(F)(F)F = not fulfilled

Ask | Textbook exercise: given the entry `O=c1c2ccccc2oc(=S)n1CCCSc1ccncc1` , state whether its inhibition at 10 µM is greater than or equal to 70%.
Reply | not fulfilled

Ask | hey, is inhibition at 10 µM for this one >= 70%? O=C(c1ccccc1)N(CCCSc1ccncc1)Cc1ccccc1 [Example 77, hydrochloride]
Reply | fulfilled

Ask | Hi team, for `O=C1C(=Cc2ccccc2)SC(=S)N1CCCCSc1ccncc1` , is the recorded inhibition at 10 µM at or above 70%?
Reply | fulfilled

Ask | Does the reported inhibition at 10 µM for `O=C1SC(=Cc2ccccc2)C(=O)N1CCSc1ccncc1` fall at or above the 70% mark?
Reply | fulfilled

Ask | Exam item: decide whether the reported inhibition at 10 µM for O=C(NCCCOc1ccncc1)c1cc2ccccc2s1 [Example 115, hydrochloride] is at least 70%.
Reply | not fulfilled

Ask | Identify whether the reported inhibition at 10 µM of the following compound is 70% or greater: `O=C1c2ccc([N+](=O)[O-])cc2C(=O)N1CSc1ccncc1`
Reply | not fulfilled

* * *

target-under-test: cyclooxygenase (Rattus norvegicus)
Sequence (Q63921 27-602): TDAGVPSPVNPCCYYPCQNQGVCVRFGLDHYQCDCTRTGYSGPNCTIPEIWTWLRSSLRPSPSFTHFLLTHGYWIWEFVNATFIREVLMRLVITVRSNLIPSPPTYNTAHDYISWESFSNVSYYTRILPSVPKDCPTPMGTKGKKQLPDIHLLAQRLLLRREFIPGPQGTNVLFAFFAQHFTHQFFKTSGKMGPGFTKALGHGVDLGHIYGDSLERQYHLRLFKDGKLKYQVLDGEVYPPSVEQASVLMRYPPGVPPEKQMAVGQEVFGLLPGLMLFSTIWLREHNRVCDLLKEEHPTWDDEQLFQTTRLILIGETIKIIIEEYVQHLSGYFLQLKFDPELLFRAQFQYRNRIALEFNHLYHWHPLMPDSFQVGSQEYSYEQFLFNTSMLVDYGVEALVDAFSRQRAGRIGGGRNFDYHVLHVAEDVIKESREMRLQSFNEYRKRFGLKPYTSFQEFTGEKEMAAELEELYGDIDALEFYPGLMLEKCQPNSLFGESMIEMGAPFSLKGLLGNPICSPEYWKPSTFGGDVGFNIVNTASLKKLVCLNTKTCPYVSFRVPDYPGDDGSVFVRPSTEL
assay-explanation: Cyclooxygenase inhibitory activity (HHT formation from arachidonic acid in rat platelet-rich plasma)
Counter-ions that a name gives are not always drawn.
property: IC50 (µM)
Write the value in µM as a bare number.

// worked examples, IC50 included
Cl.O=C(N(CCCSc1ccncc1)Cc1ccccc1)C(F)(F)F [Example 73, hydrochloride] = 2.8
CC(C)(C)c1ccc(C(=O)NCCCSc2ccncc2)cc1 [Example 32, hydrochloride] = 6.5
O=C1c2ccccc2C(O)N1CCCCSc1ccncc1 (stereo not drawn) = 4.3
O=C(NCCCSc1ccncc1)c1cc(Br)c(Br)s1 = 7.9
O=C1c2ccccc2CN1CCCSc1ccncc1 = 7

The compound listed as O=C(/C=C/c1ccccc1)NCCCSc1ccncc1 [Example 28, hydrochloride] shows IC50 equal to 5.6

Form: compound = `O=C(NCCCOc1ccncc1)c1ccccc1CO` ; IC50 = 8

Short answer for `O=C1c2ccccc2CN1CCSc1ccncc1` : IC50 was 5.1

The measured IC50 associated with O=C(NCCCSc1ccncc1)c1ccco1 [Example 53, 4-[3-(2-furoylamino)propylthio]pyridine] reads 8.6
